procedure-summary: Aqueous solubility of compound incubated for 24 hrs by HPLC based shake flask method
Type: physicochemical
measurement-context: buffer
readout-type: solubility thermodynamic at 24 h
Enter the number, and then the unit.

Reported solubility thermodynamic at 24 h of Nc1ncnc2c1c(-c1ccc(Oc3ccccc3)cc1)nn2C1CCN(C(=O)CN2CCN(CC3CN(c4ccc5c(c4)C(=O)N(C4CCC(=O)NC4=O)C5=O)C3)CC2)CC1 (stereo unspecified) : 8.16 µg/mL

---

procedure-summary: AUC (0 to t) in Sprague-Dawley rat at 20 mg/kg, po by UPLC analysis
Format: ADME, organism-based
measurement-context: in vivo
readout-type: AUC(0-t) (ng·h/mL)
Please reply with the bare figure in ng·h/mL and do not write the unit itself.

Reported AUC(0-t) of Nc1ncnc2c1c(-c1ccc(Oc3ccccc3)cc1)nn2C1CCN(C(=O)CN2CCN(CC3CN(c4ccc5c(c4)C(=O)N(C4CCC(=O)NC4=O)C5=O)C3)CC2)CC1 (stereo unspecified) : 27.1
